Origin of values: the supplement of paper PMC10065799

The following sequences are shown together with reported phosphorylation enrichment values.
# tgt: FGFR1 (UniProt P11362)
# Sequence (P11362 whole entry, looked up): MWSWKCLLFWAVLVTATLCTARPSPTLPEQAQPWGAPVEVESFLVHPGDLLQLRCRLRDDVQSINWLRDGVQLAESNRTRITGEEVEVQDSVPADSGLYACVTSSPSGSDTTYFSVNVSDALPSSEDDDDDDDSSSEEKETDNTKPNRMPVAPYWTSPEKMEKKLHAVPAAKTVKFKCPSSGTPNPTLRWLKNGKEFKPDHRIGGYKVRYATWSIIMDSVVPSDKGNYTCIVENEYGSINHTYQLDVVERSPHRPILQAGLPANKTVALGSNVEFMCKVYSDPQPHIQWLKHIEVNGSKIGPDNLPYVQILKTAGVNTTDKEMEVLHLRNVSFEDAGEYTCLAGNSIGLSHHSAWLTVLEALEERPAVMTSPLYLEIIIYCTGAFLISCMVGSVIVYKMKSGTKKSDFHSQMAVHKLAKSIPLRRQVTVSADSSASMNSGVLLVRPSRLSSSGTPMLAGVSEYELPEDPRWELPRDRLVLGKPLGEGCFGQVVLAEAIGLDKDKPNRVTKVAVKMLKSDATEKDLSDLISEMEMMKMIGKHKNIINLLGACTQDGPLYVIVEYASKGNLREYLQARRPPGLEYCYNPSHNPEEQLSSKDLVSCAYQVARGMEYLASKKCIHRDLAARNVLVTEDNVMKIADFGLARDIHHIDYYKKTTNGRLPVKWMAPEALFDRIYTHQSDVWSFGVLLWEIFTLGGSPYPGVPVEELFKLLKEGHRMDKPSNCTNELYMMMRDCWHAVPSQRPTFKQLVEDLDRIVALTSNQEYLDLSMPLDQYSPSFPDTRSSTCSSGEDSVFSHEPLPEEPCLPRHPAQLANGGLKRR
# assay.remarks: phosphorylation enrichment, bacterial display (enrichment ratio); higher = better substrate or ligand; peptides without Tyr show the background
Respond using a number only.

>  <biosequence>
EPTPGYEVSQR [TSC2_Y1788_G1791S]

>  <tgt>
FGFR1 (UniProt P11362)

>  <phosphorylation enrichment>
0.46

$$$$
>  <biosequence>
GKSFIYAAFHA [KCNT1_Y563_T562I]

>  <tgt>
FGFR1 (UniProt P11362)

>  <phosphorylation enrichment>
0.452

$$$$
>  <biosequence>
FLENFYDLKKD [MMP3_Y42_YF]

>  <tgt>
FGFR1 (UniProt P11362)

>  <phosphorylation enrichment>
0.452

$$$$
>  <biosequence>
GQKVAYGGTED [ALDH3A1_Y305_G309E]

>  <tgt>
FGFR1 (UniProt P11362)

>  <phosphorylation enrichment>
0.412

$$$$
>  <biosequence>
KQFWRYFPGNL [SLC25A4_Y112_A114P]

>  <tgt>
FGFR1 (UniProt P11362)

>  <phosphorylation enrichment>
0.444

$$$$

stdin: Item under review: SQDSAYHSGIQ [FLG_Y3940] . Reported phosphorylation enrichment?
stdout: 0.4

stdin: Item under review: CTTIDYNYMCN [TP53_Y234_H233D] . Reported phosphorylation enrichment?
stdout: 0.957

stdin: Item under review: LTMAPYSSVSV [FAM81A_Y24_L29V] . Reported phosphorylation enrichment?
stdout: 0.653

* * *

# tgt: FGFR3 (UniProt P22607)
# Sequence (P22607 whole entry, looked up): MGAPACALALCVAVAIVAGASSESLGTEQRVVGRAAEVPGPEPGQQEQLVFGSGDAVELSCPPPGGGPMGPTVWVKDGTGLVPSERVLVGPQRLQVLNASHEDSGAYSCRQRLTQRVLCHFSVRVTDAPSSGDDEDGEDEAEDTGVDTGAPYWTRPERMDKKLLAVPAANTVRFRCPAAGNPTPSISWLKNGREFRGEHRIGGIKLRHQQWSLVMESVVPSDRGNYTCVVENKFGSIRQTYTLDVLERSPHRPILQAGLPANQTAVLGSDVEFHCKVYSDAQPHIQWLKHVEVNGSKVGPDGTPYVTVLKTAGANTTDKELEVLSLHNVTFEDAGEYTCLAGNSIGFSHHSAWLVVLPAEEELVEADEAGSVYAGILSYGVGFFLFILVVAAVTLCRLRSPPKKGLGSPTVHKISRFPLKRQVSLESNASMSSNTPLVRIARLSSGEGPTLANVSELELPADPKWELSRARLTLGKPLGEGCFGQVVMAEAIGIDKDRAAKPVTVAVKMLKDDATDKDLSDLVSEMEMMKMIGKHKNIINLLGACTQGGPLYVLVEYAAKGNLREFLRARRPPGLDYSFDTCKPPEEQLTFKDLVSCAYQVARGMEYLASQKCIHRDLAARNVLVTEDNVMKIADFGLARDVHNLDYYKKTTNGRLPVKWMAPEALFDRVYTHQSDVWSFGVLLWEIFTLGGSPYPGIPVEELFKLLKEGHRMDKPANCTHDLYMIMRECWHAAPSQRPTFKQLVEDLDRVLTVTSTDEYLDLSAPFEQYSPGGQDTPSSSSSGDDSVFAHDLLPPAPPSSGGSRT
# assay.remarks: phosphorylation enrichment, bacterial display (enrichment ratio); higher = better substrate or ligand; peptides without Tyr show the background
value.kind: phosphorylation enrichment
Respond using a number only.

>  <biosequence>
EDSEYYKAFEE [CASQ2_Y179]

>  <phosphorylation enrichment>
0.742

$$$$
>  <biosequence>
KILGRYFETSS [PAX2_Y72_G76S_YF]

>  <phosphorylation enrichment>
0.633

$$$$

stdin: Item under review: FASTGYGIAIQ [GRIN2B_Y762] . Reported phosphorylation enrichment?
stdout: 0.55

stdin: Item under review: KAIMTYVFSFY [ACTN4_Y260_S262F] . Reported phosphorylation enrichment?
stdout: 0.794

stdin: Item under review: RRIHSYRGQLW [VHL_Y112_H115Q] . Reported phosphorylation enrichment?
stdout: 0.596

stdin: Item under review: LRRREYQRQDF [PRKRIP1_Y90_YF] . Reported phosphorylation enrichment?
stdout: 0.561

stdin: Item under review: TKLKDYYIFNK [CCDC42_Y149_A144T] . Reported phosphorylation enrichment?
stdout: 3.16

stdin: Item under review: DRLASYLDKLR [KRT12_Y139_V143L] . Reported phosphorylation enrichment?
stdout: 0.597

stdin: Item under review: GFEEAYSVFKK [PAFAH1B1_Y28_YF] . Reported phosphorylation enrichment?
stdout: 0.412

stdin: Item under review: FETDFYQKGGK [INSR_Y1190_R1191Q_YF] . Reported phosphorylation enrichment?
stdout: 0.503

stdin: Item under review: IGHHAYGDQFR [IDH1_Y135_R132H_YF] . Reported phosphorylation enrichment?
stdout: 0.477

stdin: Item under review: NLVSEYQQFQD [TUBB3_Y422_D417N_YF] . Reported phosphorylation enrichment?
stdout: 0.745

stdin: Item under review: IVLRSYPASDH [NID2_Y449_G453D] . Reported phosphorylation enrichment?
stdout: 0.546

* * *

# tgt: FGFR1 (UniProt P11362)
# assay.remarks: phosphorylation enrichment, bacterial display (enrichment ratio); higher = better substrate or ligand; peptides without Tyr show the background
If the reported phosphorylation enrichment equals or exceeds 0.5, assign T. If not, assign F.

>  <biosequence>
TVFSDYLHPQF [CCPG1_Y569_YF]

>  <group.label>
T

$$$$
>  <biosequence>
TGQERYRAITS [RAB11B_Y73_A68T]

>  <group.label>
F

$$$$
>  <biosequence>
DEGVNYFMSKG [FBXO8_Y156]

>  <group.label>
T

$$$$
>  <biosequence>
PADQAYSWYQH [NDST1_Y711_R709Q]

>  <group.label>
T

$$$$
>  <biosequence>
ANAFIYVVQLP [L1CAM_Y420_YF]

>  <group.label>
T

$$$$

stdin: Would you say VVLVSYVPFSQ [SH2B1_Y624_S627F] shows phosphorylation enrichment at minimum 0.5?
stdout: T

stdin: Would you say PSQRHYVYYYS [PTEN_Y174_R173H] shows phosphorylation enrichment at minimum 0.5?
stdout: T

stdin: Would you say EKMWTYMPSAE [GRIA4_Y695_R697P] shows phosphorylation enrichment at minimum 0.5?
stdout: F

stdin: Would you say PELIDYGKLWK [ACTN1_Y193_R197W] shows phosphorylation enrichment at minimum 0.5?
stdout: T

stdin: Would you say IGRHAYGDQFR [IDH1_Y135_YF] shows phosphorylation enrichment at minimum 0.5?
stdout: F

* * *

The following sequences are shown together with reported phosphorylation enrichment values.
# tgt: EPHB1 (UniProt P54762)
# Sequence (P54762 whole entry, looked up): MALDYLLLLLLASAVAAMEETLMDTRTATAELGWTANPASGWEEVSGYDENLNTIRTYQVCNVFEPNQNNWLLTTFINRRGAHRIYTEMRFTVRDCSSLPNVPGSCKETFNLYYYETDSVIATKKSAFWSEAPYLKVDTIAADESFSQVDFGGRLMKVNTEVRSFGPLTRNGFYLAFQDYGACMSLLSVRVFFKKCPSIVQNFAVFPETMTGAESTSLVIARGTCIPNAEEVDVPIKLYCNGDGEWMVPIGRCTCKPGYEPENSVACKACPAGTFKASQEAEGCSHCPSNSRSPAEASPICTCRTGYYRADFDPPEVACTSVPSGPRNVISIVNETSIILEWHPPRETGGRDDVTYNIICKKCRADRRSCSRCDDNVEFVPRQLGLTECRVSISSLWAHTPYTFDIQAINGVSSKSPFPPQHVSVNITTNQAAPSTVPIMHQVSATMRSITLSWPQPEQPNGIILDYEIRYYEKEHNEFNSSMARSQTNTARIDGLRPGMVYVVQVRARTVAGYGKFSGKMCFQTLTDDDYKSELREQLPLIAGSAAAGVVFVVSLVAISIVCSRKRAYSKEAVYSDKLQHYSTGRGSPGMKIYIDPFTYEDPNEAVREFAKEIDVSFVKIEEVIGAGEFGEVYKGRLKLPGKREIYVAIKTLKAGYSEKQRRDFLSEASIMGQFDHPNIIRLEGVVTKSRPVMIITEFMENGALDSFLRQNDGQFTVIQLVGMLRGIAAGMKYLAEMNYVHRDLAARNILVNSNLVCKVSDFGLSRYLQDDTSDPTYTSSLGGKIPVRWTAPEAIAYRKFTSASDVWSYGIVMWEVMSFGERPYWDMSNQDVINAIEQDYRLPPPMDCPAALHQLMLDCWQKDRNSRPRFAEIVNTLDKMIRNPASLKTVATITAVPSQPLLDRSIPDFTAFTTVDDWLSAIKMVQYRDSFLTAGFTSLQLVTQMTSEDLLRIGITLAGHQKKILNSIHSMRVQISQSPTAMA
# assay.remarks: phosphorylation enrichment, bacterial display (enrichment ratio); higher = better substrate or ligand; peptides without Tyr show the background
Respond using a number only.

Sample answers from the record:
>  <biosequence>
VNNTVYGIDAM [EIF3J_Y143_A141T]

>  <phosphorylation enrichment>
0.479

$$$$
>  <biosequence>
DGTESYHTVSS [PLK1_Y462_L463H]

>  <phosphorylation enrichment>
0.342

$$$$
>  <biosequence>
VVHGSYDEIEG [SEC24A_Y263_S261G]

>  <phosphorylation enrichment>
0.424

$$$$

stdin: Item under review: AHADEYGAEAL [HBA1_Y25_G23D] . Reported phosphorylation enrichment?
stdout: 0.538

stdin: Item under review: EKNANYKEGTF [CLRN1_Y171_I168N_YF] . Reported phosphorylation enrichment?
stdout: 0.346

stdin: Item under review: LDLPGYCPLRE [CCDC116_Y291] . Reported phosphorylation enrichment?
stdout: 1.09

stdin: Item under review: QYKDKYLAKHN [CASK_Y712] . Reported phosphorylation enrichment?
stdout: 0.501

* * *

# System: AncSZ
# assay.remarks: phosphorylation enrichment, bacterial display (enrichment ratio); higher = better substrate or ligand; peptides without Tyr show the background
value.kind: phosphorylation enrichment
Respond using a number only.

Sample answers from the record:
>  <biosequence>
SARSAYQEAMD [SFN_Y151]

>  <tgt>
AncSZ

>  <phosphorylation enrichment>
0.81

$$$$
>  <biosequence>
CATIHYNFMCN [TP53_Y234_T230A_YF]

>  <tgt>
AncSZ

>  <phosphorylation enrichment>
0.993

$$$$
>  <biosequence>
IGHHAYGDQFR [IDH1_Y135_R132H_YF]

>  <tgt>
AncSZ

>  <phosphorylation enrichment>
0.63

$$$$

stdin: Item under review: VPLLEYYRDIF [CDAN1_Y712] . Reported phosphorylation enrichment?
stdout: 0.998

stdin: Item under review: LFEDRYLLGTS [ASS1_Y87_YF] . Reported phosphorylation enrichment?
stdout: 2.21

stdin: Item under review: LDYNEYFRDLN [HPRT1_Y198] . Reported phosphorylation enrichment?
stdout: 1.81

stdin: Item under review: DTDSSYCIPIA [GAB1_Y373_T377I] . Reported phosphorylation enrichment?
stdout: 2.21

stdin: Item under review: LIEQAYDNPHE [PRPF8_Y871] . Reported phosphorylation enrichment?
stdout: 1.12

stdin: Item under review: SVKVFYKKCWS [EPHA7_Y202_YF] . Reported phosphorylation enrichment?
stdout: 1.14

stdin: Item under review: KAIMTYVFSFY [ACTN4_Y260_S262F] . Reported phosphorylation enrichment?
stdout: 1.19

stdin: Item under review: REIIAYQPYGK [PRKCG_Y529_P524R] . Reported phosphorylation enrichment?
stdout: 0.83

* * *

# tgt: FGFR3 (UniProt P22607)
# assay.remarks: phosphorylation enrichment, bacterial display (enrichment ratio); higher = better substrate or ligand; peptides without Tyr show the background
value.kind: phosphorylation enrichment
Respond using a number only.

stdin: Form field - read-out: phosphorylation enrichment; system: FGFR3 (UniProt P22607); submitted item: NDQPDYDSVAS [GIT2_Y392]
stdout: 0.76

* * *

# tgt: c-Src SH2
# assay.remarks: SH2 binding enrichment of the phosphorylated peptide, bacterial display (enrichment ratio); higher = better substrate or ligand; peptides without Tyr show the background
value.kind: SH2 binding enrichment
Respond using a number only.

Sample answers from the record:
>  <biosequence>
PSALGYSPSLR [LLGL2_Y40]

>  <SH2 binding enrichment>
0.493

$$$$
>  <biosequence>
RSDEDYLYREE [POR_Y573]

>  <SH2 binding enrichment>
0.435

$$$$

stdin: Item under review: LEQDEYALHSH [HADHB_Y244_R247H] . Reported SH2 binding enrichment?
stdout: 0.452

stdin: Item under review: ERDFTYDELLN [EIF2S2_Y176_E177D_YF] . Reported SH2 binding enrichment?
stdout: 1.2

stdin: Item under review: DRQASYLDKVR [KRT16_Y131_L128Q] . Reported SH2 binding enrichment?
stdout: 0.465
